Data origin, for the record: patent US20240309103A1

Overview of reported EC50 (nM), calcium flux, Expt 1 across a group of binders:
Biological target: T1, human NPR1 on HEK293/hNPR1.myc.DDK cells (0 hANP) (human, UniProt P16066 33-1061)
T1 sequence: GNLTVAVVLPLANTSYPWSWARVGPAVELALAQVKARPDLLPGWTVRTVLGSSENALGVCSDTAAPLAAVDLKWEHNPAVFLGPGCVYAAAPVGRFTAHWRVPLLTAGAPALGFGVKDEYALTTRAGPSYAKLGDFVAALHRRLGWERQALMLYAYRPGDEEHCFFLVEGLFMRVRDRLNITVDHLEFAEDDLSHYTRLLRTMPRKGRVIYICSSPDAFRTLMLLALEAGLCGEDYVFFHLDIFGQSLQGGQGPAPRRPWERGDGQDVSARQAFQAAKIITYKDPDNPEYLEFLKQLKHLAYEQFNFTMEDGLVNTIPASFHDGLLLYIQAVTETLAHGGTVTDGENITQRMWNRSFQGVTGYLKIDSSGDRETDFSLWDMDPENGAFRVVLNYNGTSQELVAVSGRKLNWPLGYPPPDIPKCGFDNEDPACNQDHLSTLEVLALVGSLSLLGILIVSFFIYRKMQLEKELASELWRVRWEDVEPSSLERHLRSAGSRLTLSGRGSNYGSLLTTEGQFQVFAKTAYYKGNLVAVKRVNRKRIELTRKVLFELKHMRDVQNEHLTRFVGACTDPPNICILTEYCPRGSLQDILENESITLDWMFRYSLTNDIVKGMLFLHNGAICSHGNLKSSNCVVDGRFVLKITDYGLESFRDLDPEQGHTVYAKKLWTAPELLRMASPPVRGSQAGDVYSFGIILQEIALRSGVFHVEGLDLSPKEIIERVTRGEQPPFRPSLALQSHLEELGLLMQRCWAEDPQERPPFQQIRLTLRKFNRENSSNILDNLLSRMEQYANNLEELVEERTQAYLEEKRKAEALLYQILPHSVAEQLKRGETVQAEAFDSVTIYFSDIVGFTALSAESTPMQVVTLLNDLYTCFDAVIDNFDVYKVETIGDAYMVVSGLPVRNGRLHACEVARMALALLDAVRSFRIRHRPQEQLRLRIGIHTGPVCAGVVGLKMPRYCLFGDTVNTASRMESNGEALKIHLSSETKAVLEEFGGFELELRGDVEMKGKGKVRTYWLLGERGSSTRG
Assay: cell-based or functional assay
Only the number, expressed in nM, is required.

Worked examples, 4 binders total:
// returns reported EC50 (nM), calcium flux, Expt 1 for input mAb22805 (antibody, human IgG4, V domains shown) VH: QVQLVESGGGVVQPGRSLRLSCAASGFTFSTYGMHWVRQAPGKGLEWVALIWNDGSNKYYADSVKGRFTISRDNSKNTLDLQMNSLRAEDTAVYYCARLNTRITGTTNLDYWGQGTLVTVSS VL: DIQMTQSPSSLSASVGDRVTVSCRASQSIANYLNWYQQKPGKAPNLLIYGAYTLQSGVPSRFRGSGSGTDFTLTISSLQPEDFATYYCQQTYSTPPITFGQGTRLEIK 239

What do we get for mAb25491 (antibody, human IgG4, V domains shown) VH: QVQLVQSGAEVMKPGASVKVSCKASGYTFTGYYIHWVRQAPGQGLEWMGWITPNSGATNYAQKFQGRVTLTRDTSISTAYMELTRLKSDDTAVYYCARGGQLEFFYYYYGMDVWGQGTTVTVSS VL: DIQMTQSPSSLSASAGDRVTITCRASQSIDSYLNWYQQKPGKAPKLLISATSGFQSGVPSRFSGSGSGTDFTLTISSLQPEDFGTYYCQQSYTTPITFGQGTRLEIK ? 102

Same lookup for mAb25497 (antibody, human IgG4, V domains shown) VH: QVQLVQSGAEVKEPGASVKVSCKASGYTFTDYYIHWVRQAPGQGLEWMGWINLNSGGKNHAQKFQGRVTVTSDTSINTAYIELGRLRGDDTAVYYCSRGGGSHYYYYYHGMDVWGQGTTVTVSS VL: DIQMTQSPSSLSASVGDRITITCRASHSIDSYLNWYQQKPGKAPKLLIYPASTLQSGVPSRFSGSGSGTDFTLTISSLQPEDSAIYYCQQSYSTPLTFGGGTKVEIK , please. 72.6

Param item: mAb22033 (antibody, human IgG4, V domains shown) VH: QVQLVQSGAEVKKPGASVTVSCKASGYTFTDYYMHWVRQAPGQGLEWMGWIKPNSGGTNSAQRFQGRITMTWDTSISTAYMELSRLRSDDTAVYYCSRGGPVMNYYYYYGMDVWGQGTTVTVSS VL: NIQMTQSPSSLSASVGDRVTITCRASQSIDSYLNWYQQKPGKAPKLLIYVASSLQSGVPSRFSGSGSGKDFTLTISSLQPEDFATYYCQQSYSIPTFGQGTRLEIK 83.7

In the following, a different binder is considered.
For the binder mAb25508 (antibody, human IgG4, V domains shown) VH: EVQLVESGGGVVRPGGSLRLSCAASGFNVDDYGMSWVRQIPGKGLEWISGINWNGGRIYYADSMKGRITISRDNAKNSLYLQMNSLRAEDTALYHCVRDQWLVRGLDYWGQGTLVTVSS VL: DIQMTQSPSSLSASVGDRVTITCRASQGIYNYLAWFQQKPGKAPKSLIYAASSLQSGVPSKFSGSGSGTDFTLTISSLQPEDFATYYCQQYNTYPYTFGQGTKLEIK , what EC50 (nM), calcium flux, Expt 1 is on record? 326
